assay: Plasma pharmacokinetics in male and female SD rats after single intravenous and intragastric administration; type: in vivo; conditions: rat, female SD rats, IV single, 2.0 mg/kg, read-out: plasma clearance rate
Outcome Measure: clearance

Exam item: I am curious: what clearance value has been reported for "CC(C)(Sc1nnc(Br)n1-c1sc(C2CC2)c2c1CCC(F)(F)C2)C(=O)O" ?
Marked response: 6.41 mL/min/kg

----------
assay: Solubility test of crystal form A in 9 vehicles (HPLC); assay type: physicochemical; conditions: aqueous buffer, thermodynamic from solid; pH 4.5 buffer solution, 37° C., stirring 4 hrs
Outcome Measure: solubility at 4 h (µg/mL)
Numbers only, in µg/mL.

Exam item: I am curious: what solubility at 4 h value has been reported for CC(C)(Sc1nnc(Br)n1-c1sc(C2CC2)c2c1CCC(F)(F)C2)C(=O)O [crystal form A] ?
Marked response: 1
